Biological target: T1, human S100A4 dimer (Homo sapiens, UniProt P26447 1-101)
T1 construct: In the SPR it was captured on an anti-His surface, so it carried a His tag; also called recombinant human S100A4 dimer
T1 sequence (P26447 whole entry, one chain of several): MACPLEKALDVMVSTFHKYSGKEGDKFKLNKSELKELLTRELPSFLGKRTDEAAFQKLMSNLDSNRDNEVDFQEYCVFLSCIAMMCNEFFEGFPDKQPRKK
Assay: SPR, Biacore T200, 25 C; S100A4 captured via anti-His, antibody as analyte (0.78-200 nM), 1:1 fit
measuredAttribute: koff (s⁻¹)

- binder: "VH1_H43Ser VL3_L44Leu (antibody, V domains shown) VH: QVQLQESGPGLVKPSQTLSLTCTVSGDSFTNDYYWNWIRQHPGSGLEWIGHIGYGGNINYNPSLKNRLSMSRDTSKNQFSLKLSSVTAADTAVYYCTRESFYDGYPFDYWGQGTLVTVSS VL: DIQMTQSPSSLSASVGDRVTITCRASQDIRNYLNWYQQKPGKALKLLLYYTSRLHSGVPSRFSGSGSGTDYTLTISSLQPEDFATYYCQQGNSLPRTFGGGTKVEIK"
  measuredAttribute: "koff"
  obsValue: 0.000512
- binder: "VH1 VL3_L42Gly (antibody, V domains shown) VH: QVQLQESGPGLVKPSQTLSLTCTVSGDSFTNDYYWNWIRQHPGKGLEWIGHIGYGGNINYNPSLKNRLSMSRDTSKNQFSLKLSSVTAADTAVYYCTRESFYDGYPFDYWGQGTLVTVSS VL: DIQMTQSPSSLSASVGDRVTITCRASQDIRNYLNWYQQKPGGAPKLLLYYTSRLHSGVPSRFSGSGSGTDYTLTISSLQPEDFATYYCQQGNSLPRTFGGGTKVEIK"
  measuredAttribute: "koff"
  obsValue: 0.00064
- binder: "VH0 VL0: the VH and VL regions of 6B12 comprised in a humanized IgG4 isotype framework (antibody, V domains shown) VH: DVQLQESGPGLVKPSQSLSLTCSVTGDSFTNDYYWNWIRQFPGSKLEWMGHIGYGGNINYNPSLKNRISITRDTSKNQFFLRLTSVTTEDTATYYCTRESFYDGYPFDYWGQGTLVTVSA VL: DIQMTQTTSSLSASLGDRVTISCRASQDIRNYLNWYQQRPGGTLKLLIYYTSRLHSGVPSRFSGSGSGTDYSLTISNLEQEDIATYFCQQGNSLPRTFGGGTKLEIK"
  measuredAttribute: "koff"
  obsValue: 0.000219
- binder: "VH1_H44Lys VL3 (antibody, V domains shown) VH: QVQLQESGPGLVKPSQTLSLTCTVSGDSFTNDYYWNWIRQHPGKKLEWIGHIGYGGNINYNPSLKNRLSMSRDTSKNQFSLKLSSVTAADTAVYYCTRESFYDGYPFDYWGQGTLVTVSS VL: DIQMTQSPSSLSASVGDRVTITCRASQDIRNYLNWYQQKPGKAPKLLLYYTSRLHSGVPSRFSGSGSGTDYTLTISSLQPEDFATYYCQQGNSLPRTFGGGTKVEIK"
  measuredAttribute: "koff"
  obsValue: 0.000592
- binder: "6B12, mouse monoclonal IgG1 anti-S100A4 antibody (antibody, V domains shown, Mouse IgG1; also called 6B12 mIgG1; 6B12 IgG1) VH: DVQLQESGPGLVKPSQSLSLTCSVTGDSFTNDYYWNWIRQFPGSKLEWMGHIGYGGNINYNPSLKNRISITRDTSKNQFFLRLTSVTTEDTATYYCTRESFYDGYPFDYWGQGTLVTVSA VL: DIQMTQTTSSLSASLGDRVTISCRASQDIRNYLNWYQQRPGGTLKLLIYYTSRLHSGVPSRFSGSGSGTDYSLTISNLEQEDIATYFCQQGNSLPRTFGGGTKLEIK"
  measuredAttribute: "koff"
  obsValue: 0.000206
